- assay_text: Toxicity in male BALB/c mouse assessed as survival rate at 132.7 mg/kg, ip measured after 6 days relative to control
- Format: organism-based
- condition_info: in vivo, time 6 day
observed_property: survival at 144 h (%)
// return numeric value only (unit: %, not printed)

In: Fill in: survival at 144 h of `CCCCCCCCCC(=O)N[C@H](CCCN)C(=O)N[C@H](Cc1ccc(O)cc1)C(=O)N[C@H](Cc1c[nH]c2ccccc12)C(=O)N[C@H](CCCN)C(=O)N[C@@H](CCCN)C(=O)NCC(=O)N[C@H](CCCN)C(=O)N[C@@H](Cc1c[nH]c2ccccc12)C(=O)N[C@H](C(=O)N[C@H](C(=O)NCC(=O)N[C@@H](CO)C(=O)O)[C@@H](C)CC)[C@@H](C)O` is ___
Out: 0
